# assay_system: human Leukotriene B4 Receptor 1 (LTB4-BLT1), LTB4R (gene 1241) (UniProt Q15722)
# Sequence (Q15722 whole entry, looked up): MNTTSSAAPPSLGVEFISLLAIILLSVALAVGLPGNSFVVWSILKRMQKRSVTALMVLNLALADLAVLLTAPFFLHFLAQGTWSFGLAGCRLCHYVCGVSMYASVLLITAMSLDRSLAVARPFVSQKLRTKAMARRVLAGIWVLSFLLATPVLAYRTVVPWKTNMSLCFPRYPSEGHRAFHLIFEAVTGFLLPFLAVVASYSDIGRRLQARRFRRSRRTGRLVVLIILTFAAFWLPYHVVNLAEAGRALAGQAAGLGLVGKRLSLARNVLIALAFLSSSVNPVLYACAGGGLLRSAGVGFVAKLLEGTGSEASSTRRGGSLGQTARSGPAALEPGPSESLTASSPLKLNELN
# experiment_notes: NVS_GPCR_hLTB4_BLT1: NovaScreen (NVS) G Protein-Coupled Receptor Assay for human Leukotriene B4 Receptor 1 (LTB4-BLT1) (AID 2283271)
Results filed as inconclusive are left out. Activity calls are given as the source filed them. How the source made its calls: active means hit-call score of the fitted dose curve at least 0.9, where 1 is the maximum; inconclusive means response in the unintended direction; inactive means score below 0.9.
assay_metric: AC50

Study these solved cases before continuing.
CN(C)c1ccc(C(=C2C=CC(=[N+](C)C)C=C2)c2ccc(N(C)C)cc2)cc1; 8.85 µM (active)
Cc1oc2c(NC(=O)c3c(Cl)cccc3Cl)cccc2c1C(C)(C)O; 11.7 µM (active)

Q: Quick check: AC50 on human Leukotriene B4 Receptor 1 (LTB4-BLT1), LTB4R (gene 1241) (UniProt Q15722), item NCc1cccc(C2CCN(C(=O)c3ccc(C#Cc4ccccc4F)o3)CC2)c1 ?
Ans: 25 µM (active)
